- procedure summary: Intrinsic clearance in rat cytosol after 45 mins by LC/MS analysis
- Format: ADME
The entries below come with measured microsomal CLint values attached.

# compound smiles, microsomal CLint
data = [
    ("Cc1nc(Cn2c(=O)[nH]c3c(N)nc(C(F)(F)F)cc32)co1", "< 1 µL/min/mg"),
    ("Cc1cc(Cn2c(=O)[nH]c3c(N)nc(C(F)(F)F)cc32)no1", "< 1 µL/min/mg"),
    ("Cc1nc(Cn2c(=O)[nH]c3c(N)nc(C(F)(F)F)cc32)cs1", "< 1 µL/min/mg"),
]

---

- procedure summary: Intrinsic clearance in human liver microsomes
- Assay type: ADME, Microsome
- run conditions: read-out: CLH
property label: microsomal CLint

# compound smiles, property label, result
rows = [
    ("Cc1nc(Cn2c(=O)[nH]c3c(N)nc(C(F)(F)F)cc32)co1", "microsomal CLint", "< 8 µL/min/mg"),
    ("Cc1nc(Cn2c(=O)[nH]c3c(N)nc(C(F)(F)F)cc32)cs1", "microsomal CLint", "< 7 µL/min/mg"),
    ("Cc1cc(Cn2c(=O)[nH]c3c(N)nc(C(F)(F)F)cc32)no1", "microsomal CLint", "< 8 µL/min/mg"),
]
